// provenance: patent US20160257732A1

Below is a list of entries, each paired with its recorded Neutralization IC50, H7-BC04 value.
# TARGET_SYSTEM: HA of ca A/Brit. Columbia/CN-6/04 (H7N3-LP) (influenza A virus)
# ASSAY_PROTOCOL: cell-based or functional assay
Hi! Could you send only the number? It should be in µg/mL, unit omitted.

Field: example entries. Status: answers known.
Requested field: Neutralization IC50, H7-BC04. Item: Antibody 14 (antibody, V domains shown) VH: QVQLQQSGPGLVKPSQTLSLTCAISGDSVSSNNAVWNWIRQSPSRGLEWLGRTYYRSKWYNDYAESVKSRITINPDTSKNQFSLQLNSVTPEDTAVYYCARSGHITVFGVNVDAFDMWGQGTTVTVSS VL: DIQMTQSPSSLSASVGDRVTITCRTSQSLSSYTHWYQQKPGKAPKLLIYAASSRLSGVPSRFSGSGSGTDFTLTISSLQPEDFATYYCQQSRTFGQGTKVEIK
0.86

Requested field: Neutralization IC50, H7-BC04. Item: Antibody 11 (antibody, V domains shown) VH: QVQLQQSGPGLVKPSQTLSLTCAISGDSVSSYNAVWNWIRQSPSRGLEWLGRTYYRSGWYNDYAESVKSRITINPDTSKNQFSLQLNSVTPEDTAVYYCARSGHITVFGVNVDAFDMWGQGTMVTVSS VL: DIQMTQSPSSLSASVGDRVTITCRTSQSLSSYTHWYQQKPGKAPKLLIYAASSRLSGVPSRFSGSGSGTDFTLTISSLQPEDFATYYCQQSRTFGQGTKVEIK
0.71

Pending binder:
Requested field: Neutralization IC50, H7-BC04. Item: Antibody 15 (antibody, V domains shown) VH: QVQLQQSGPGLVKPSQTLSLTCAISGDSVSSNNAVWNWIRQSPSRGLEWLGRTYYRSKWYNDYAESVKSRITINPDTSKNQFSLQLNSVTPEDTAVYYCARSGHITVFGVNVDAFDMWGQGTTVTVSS VL: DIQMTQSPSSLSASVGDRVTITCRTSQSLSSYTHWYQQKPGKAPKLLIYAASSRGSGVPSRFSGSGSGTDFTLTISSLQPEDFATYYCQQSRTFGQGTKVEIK
1.25
